tested on: SW-620 colon; assay: NCI tumour cell line growth inhibition, 48 h
Collected TGI values appear next to each entry.

{"columns": ["Compound", "TGI"],
 "data": [
  ["C[C@]12C(=O)C=CCC1=CC[C@@H]1[C@@H]2[C@H]2CC3(O)C(=O)O[C@@]4(C)[C@H]5C[C@@]6(C)[C@@H]7[C@@]2(O)[C@]1(OC[C@H]6C(=O)O5)O[C@]734 (some centres undefined)", "> 100 µM"],
  ["COc1cccc(Sc2ccc([N+](=O)[O-])c3no[n+]([O-])c23)c1", "6.14 µM"],
  ["COc1cc2c3c(n(CCCCNC(=O)OC(C)(C)C)c(=O)c2cc1OC)-c1cc2c(cc1C3=O)OCO2", "> 100 µM"]
]}

Q: Given CC(=O)NNC(=S)/N=C\c1c(O)c2ccccc2oc1=O , state its recorded TGI.
A: > 100 µM

###

Collected TGI values appear next to each entry.
test system: T-47D breast; test: NCI tumour cell line growth inhibition, 48 h

{"columns": ["Smiles data", "TGI"],
 "data": [
  ["CC(=O)NNC(=S)/N=C\\c1c(O)c2ccccc2oc1=O", "> 100 µM"],
  ["COc1cc(OC)c(/C=C/C(=O)c2ccc(Nc3ncnc4ccccc34)cc2)c(OC)c1", "14.3 µM"],
  ["COc1cccc(OC(=O)c2ccc(C(F)(F)F)nc2Nc2c(C)cccc2Cl)c1", "> 100 µM"],
  ["COc1cccc(-n2ncc3c(N/N=C/c4ccc(C)cc4)ncnc32)c1", "> 25 µM"],
  ["Cc1cc2c(cc1C)[n+](=O)c(C(=O)/C=C/c1ccc3c(c1)OCO3)c(C)n2[O-]", "> 100 µM"]
]}

As a next step, examine the molecule that follows.
Q: Given CCn1c(-c2c(Cl)cc(O)cc2Cl)cc2c(Cl)cc(O)cc21 , state its recorded TGI.
A: 27.4 µM

###

Collected TGI values appear next to each entry.
system: BT-549 breast; assay: NCI tumour cell line growth inhibition, 48 h
*1 amine or outer side, *2 acyl side, *3 side chain or, on linkers, in order; H or OH if unused. Where a SMILES comes first, the peptide text is derived from it. Bridges are numbered along the chain shown (N, C = ends). Roman numbers before positions name the chains, in order. [ ]: non-standard residue; d: D form. Actinocin(9to1) = Cc1c2oc3c(C)ccc(C(=O)[*:1])c3nc-2c(C(=O)[*:2])c(N)c1=O; NMeV = CN[CH](C(=O)O)C(C)C; Sar = CNCC(=O)O
// units = µM; emit number, no label

Q: Given Cc1c2oc3c(C)ccc(C(=O)OC(C)C4NC(=O)C(C(C)C)N(C)C(=O)CN(C)C(=O)C5CCCN5C(=O)C(C(C)C)NC4=O)c3nc-2c(C(=O)OC(C)C2NC(=O)C(C(C)C)N(C)C(=O)CN(C)C(=O)C3CCCN3C(=O)C(C(C)C)NC2=O)c(N)c1=O (stereo not given) (I: cyclo([Sar][NMeV]TVP) / II: cyclo([Sar][NMeV]TVP); linker I:3-II:3 via Actinocin(9to1); configuration not given here) , state its recorded TGI.
A: 0.0363

Q: Given CC/C=C\C[C@H](O)C/C=C1/C(=O)C=C[C@@H]1C/C=C\CCCC(=O)OC(C)C , state its recorded TGI.
A: 3.51

Q: Given C/C(=N/NC(=S)Nc1cccc(Cl)c1)c1ccccn1 , state its recorded TGI.
A: 16

Q: Given O=C1CCCCC/C1=C\c1cccc([N+](=O)[O-])c1 , state its recorded TGI.
A: 72.8

###

system: MALME-3M melanoma; assay: NCI tumour cell line growth inhibition, 48 h
Collected TGI values appear next to each entry.

Before answering, review these 2 worked examples.
{"columns": ["Compound", "Observed measurement"],
 "data": [
  ["CC1(C)OC2CC3COC(=O)C3CC2O1 (centres undefined)", "> 100 µM"],
  ["C=CCOC(=O)c1c(C)n([O-])c2cc(Cl)c(Cl)cc2[n+]1=O", "70.9 µM"]
]}

Q: Given Cc1cc(C)nc(NS(=O)(=O)c2ccc(Nc3c4ccccc4nc4c(C(=O)Nc5ccc(S(=O)(=O)Nc6cc(C)on6)cc5)ccc(Cl)c34)cc2)n1 , state its recorded TGI.
A: 86.5 µM

Q: Given C[C@]12C(=O)C=CCC1=CC[C@@H]1[C@@H]2[C@H]2CC3(O)C(=O)O[C@@]4(C)[C@H]5C[C@@]6(C)[C@@H]7[C@@]2(O)[C@]1(OC[C@H]6C(=O)O5)O[C@]734 (some centres undefined) , state its recorded TGI.
A: > 100 µM

Q: Given Cc1c(-c2coc(-c3ccccc3)n2)c(=O)n(-c2ccccc2)n1C , state its recorded TGI.
A: > 100 µM

Q: Given COc1cc(O)c(C(=O)CC(C)=O)c(OC)c1 , state its recorded TGI.
A: > 100 µM

###

system: SN12C renal; experiment: NCI tumour cell line growth inhibition, 48 h
Collected TGI values appear next to each entry.

Before answering, review these 4 worked examples.
{"columns": ["Compound", "TGI"],
 "data": [
  ["O=C(/C=C/c1ccc2c(c1)OCO2)NCCc1ccco1", "> 100 µM"],
  ["COc1ccc(OC)c(NC(=O)c2cccc(NC3=C(Cl)C(=O)N(Cc4ccccc4)C3=O)c2)c1", "> 100 µM"],
  ["COc1ccc(-c2nsc3c2NC(=O)CC3c2ccc3c(c2)OCCO3)cc1 (stereo unspecified)", "> 100 µM"],
  ["Cc1cc(C)nc(NS(=O)(=O)c2ccc(Nc3c4ccccc4nc4c(C(=O)Nc5ccc(S(=O)(=O)Nc6cc(C)on6)cc5)ccc(Cl)c34)cc2)n1", "63 µM"]
]}

Q: So what TGI did C=CCNc1nc(O)c(/C=C2\C=Nc3ncccc32)s1 get with SN12C renal?
A: 5.52 µM

Q: So what TGI did O=C1NC(O)c2ccccc2O1 (stereo unspecified) get with SN12C renal?
A: > 100 µM

###

tested on: HT29 colon; test: NCI tumour cell line growth inhibition, 48 h
Collected TGI values appear next to each entry.
// units = µM; emit number, no label

Before answering, review these 6 worked examples.
{"columns": ["Compound", "Assay endpoint", "Observed measurement"],
 "data": [
  ["CCn1c(-c2c(Cl)cc(O)cc2Cl)cc2c(Cl)cc(O)cc21", "TGI", 6.82],
  ["Cc1c(NC(=O)CCl)c(=O)oc2c(C)c3occc(=O)c3cc12", "TGI", 35.3],
  ["C=CCOC(=O)c1c(C)n([O-])c2cc(Cl)c(Cl)cc2[n+]1=O", "TGI", 36.8],
  ["COC(=O)[C@H]1[C@@H](O)[C@@]2(O)c3c(OC)cc(OC)cc3O[C@@]2(c2ccc3c(c2)OCO3)[C@@H]1c1ccccc1", "TGI", 0.273],
  ["Cc1ccc(-c2c(C#N)[n+](=O)c3cc(F)c(F)cc3n2[O-])cc1", "TGI", 61],
  ["CN(C)C[C@H]1CCn2c(c(C3=C(c4cn(C)c5ccccc45)C(=O)NC3=O)c3ccccc32)C1", "TGI", 11.5]
]}

As a next step, examine the compound that follows.
Q: Given COc1cc(-c2nn(-c3cccc(NC(=O)NCCNS(=O)(=O)c4ccc(Cl)cc4)c3)cc2-c2ccncc2)ccc1Cl , state its recorded TGI.
A: 1.51

###

test system: OVCAR-8 ovarian; test: NCI tumour cell line growth inhibition, 48 h
Assay endpoint: TGI

{"columns": ["Compound", "Target system", "TGI"],
 "data": [
  ["C[C@]12C(=O)C=CCC1=CC[C@@H]1[C@@H]2[C@H]2CC3(O)C(=O)O[C@@]4(C)[C@H]5C[C@@]6(C)[C@@H]7[C@@]2(O)[C@]1(OC[C@H]6C(=O)O5)O[C@]734 (stereo partly specified)", "OVCAR-8 ovarian", "> 100 µM"]
]}

Q: Given N/C(=N\S(=O)(=O)c1ccc(-c2ccccn2)s1)Nc1ccc(Cl)cc1 , state its recorded TGI.
A: 37.6 µM

Q: Given COc1ccc(OC)c(NC(=O)c2cccc(NC3=C(Cl)C(=O)N(Cc4ccccc4)C3=O)c2)c1 , state its recorded TGI.
A: > 100 µM

Q: Given CCN1C(=O)N(CC)C2C1NN=c1s/c(=C\c3cccs3)c(=O)n12 (stereo unspecified) , state its recorded TGI.
A: > 100 µM

Q: Given Cc1c(OCCCOc2ccc3c(=O)cc(-c4ccccc4)oc3c2C)ccc2c(=O)cc(-c3ccccc3)oc12 , state its recorded TGI.
A: > 100 µM

Q: Given CC(C)(C)c1ccc(O)c(C(c2ccc([N+](=O)[O-])cc2)c2cc(C(C)(C)C)ccc2O)c1 , state its recorded TGI.
A: 7.82 µM

###

test system: SW-620 colon; assay: NCI tumour cell line growth inhibition, 48 h
Assay endpoint: TGI

Before answering, review these 8 worked examples.
{"columns": ["Compound", "Observed measurement"],
 "data": [
  ["COC(=O)CCCC1(CCCC(=O)OC)CCCCCCCCC(CCCC(=O)OC)(CCCC(=O)OC)C(=O)C1=O", "> 100 µM"],
  ["NC(=S)Nc1ccc2c(c1)oc1ccccc12", "> 100 µM"],
  ["O=C1C=CC(=O)C2C1Cc1ccccc1C2c1ccccc1 (stereo not given)", "71 µM"],
  ["O=C1C(C(c2ccc([N+](=O)[O-])cc2)N2CCOCC2)=C(O)C(c2ccccc2)N1c1ccccc1 (stereo not given)", "> 10 µM"],
  ["C[N+](C)(C)CCOC(=O)/C=C/c1cnc[nH]1", "> 500 µM"],
  ["Cn1cnc([N+](=O)[O-])c1Sc1nnnn1C", "26 µM"],
  ["COc1cc2c(c(O)c1C)C(=O)CC(c1ccccc1)O2 (stereo not given)", "> 10 µM"],
  ["COC12C=C/C(=C(/C(=O)OCCSc3ccnn3C)C(=O)CCCCCCCCC3(OC)C=C/C(=C(/C(=O)OCCSc4ccnn4C)C(=O)CCCCCCCC1)O3)O2", "5.38 µM"]
]}

Q: Given C=C1C(=O)O[C@H]2[C@H]1CC/C(COC(=O)c1cn(C)c3ccccc13)=C\CC[C@@]1(C)O[C@@H]21 , state its recorded TGI.
A: 1.1 µM

Q: Given COc1ccc(C(C#N)=C2C=CC(=NO)C=C2)cc1 , state its recorded TGI.
A: 4.39 µM
